targetDesc: KRasG12C (M1-K169, biotinylated on the N-terminus) (Homo sapiens (Human), UniProt P01116, G12C)
measurementDescription: Covalent competition assay (scintillation proximity assay, competition with radiolabeled covalent probe Compound B)
Format: binding
measurementConditions: in vitro KRASG12C activity; 10 nM KRasG12C:GDP, 25 nM radio-ligand and 475 nM unlabelled ligand, incubated 2 hours; read-out: Covalent Competition Assay IC50
Each item that follows carries a reported IC50.
readoutKind: IC50

[[record]]
molecule = "C=CC(=O)N1CC2(CC(n3nc(-c4ccc(N)nc4)c(-c4c(Cl)c(C)cc5[nH]ncc45)c3C)C2)C1 [Example 79a]"
measvalue = "0.092 µM"

[[record]]
molecule = "C=CC(=O)N1CC2(CC(n3nc(-c4ccc5c(c4)CS(=O)(=O)C5)c(-c4c(Cl)c(C)cc5[nH]ncc45)c3C)C2)C1 (single isomer, unassigned) [Example 72b]"
measvalue = "24 µM"

[[record]]
molecule = "C=CC(=O)N1CC2(CC(n3nc(-c4ccc(C(=O)NCCOC)nc4)c(-c4c(Cl)c(C)cc5[nH]ncc45)c3C)C2)C1 (single isomer, unassigned) [Example 64a]"
measvalue = "0.055 µM"

[[record]]
molecule = "C=CC(=O)N1CC2(CC(n3nc(-c4cncc(C#N)c4)c(-c4c(Cl)c(C)cc5[nH]ncc45)c3C)C2)C1 (single isomer, unassigned) [Example 10b]"
measvalue = "> 50 µM"

[[record]]
molecule = "C=CC(=O)N1CC2(CC(n3nc(-c4cnc5c(c4)ncn5C)c(-c4c(Cl)c(C)cc5[nH]ncc45)c3C)C2)C1 (single isomer, unassigned) [Example 38b]"
measvalue = "> 50 µM"

[[record]]
molecule = "C=CC(=O)N1CC2(CC(n3nc(-c4ccnc(C#N)c4)c(-c4c(Cl)c(C)cc5[nH]ncc45)c3C)C2)C1 (single isomer, unassigned)"
measvalue = "> 50 µM"

